- testedSystem: T1, Recombinant cyno-CD40 protein (Acro Biosystems) (cynomolgus monkey (Macaca fascicularis), UniProt G7PG38 21-193)
- T1 construct: also called cynomolgus monkey-CD40 protein; recombinant cynomolgus monkey CD40 recombinant protein
- procedureSummary: ELISA on coated recombinant cynomolgus monkey CD40
reportedMetric: EC50 (ng/mL)
Quick note: give the figure in ng/mL, leave out the unit.

MAB-16-0451 (antibody, V domains shown, Humanized IgG1-LALA (L234A, L235A in the human IgG1 Fc, EU numbering)) VH: EVQLEESGGGLVQPGGSLRLSCAASGFDFSSNTMCWVRQAPGKGLEWVACIYAGSSGSTYYASWAKGRFTISKDISKTTLYLQMNSLRAEDTATYFCARGLSRFSLWGQGTLVTVSS VL: DIVMTQSPSSLSASVGDRVTITCQASQSISNYLAWYQQKPGQAPKLLIYDASKLASGVPSRFSGSGSGTDFTLTISSLQPEDFATYYCQGGDYYGSSYVVAFGGGTKVVIK    10.4
MAB-16-0262 (antibody, V domains shown, Humanized IgG1-LALA (L234A, L235A in the human IgG1 Fc, EU numbering)) VH: EVQLEESGGGLVQPGGSLRLSCAASGFDFSTNAMCWVRQAPGKGLEWVACIAAGSSIITYYASWAKGRFTISKDTSKTTLYLQMNSLRAEDTAVYFCARGLSRFALWGQGTLVTVSS VL: DIVMTQSPSSLSASVGDRVTITCQASQSISSYLSWYQQKPGQAPKLLIYLTSTLASGVPSRFSGSGSGTDFTLTISSLQPEDFATYYCQGYYSSSSYVSNGFGQGTKVVIK    11.9
MAB-16-0346 (antibody, V domains shown, humanized anti-CD40 IgG1-LALA antibody of the invention) VH: EVQLEESGGGLVQPGGSLRLSCAASGFDFSTNAVSWVRQAPGKGLEWVGSISAGSSGSTYYASWAKGRFTISKDTSKTTLYLQMNSLRAEDTATYFCARGYTYLTLWGQGTLVTVSS VL: DIVMTQSPSSLSASVGDRVTITCQASHSISSTYLSWYQQKPGQAPKLLIYRASTLASGVPSRFSGSGSGTDFTLTISSLQPEDFATYYCQYTDYGSSYVSTFGQGTKVVIK    8.2
MAB-16-0267 (antibody, V domains shown, humanized anti-CD40 IgG1-LALA antibody of the invention) VH: EVQLEESGGDLVQPGASLRLSCAASGFDFNSNAMSWVRQAPGKGLEWVASIYAGGSGSTYYASWAKGRFTISKDTSKTTLYLQMNSLRAEDTATYFCARGITRLPLWGQGTLVTVSS VL: DIQMTQSPSSLSASVGDRVTITCQASQSISSYLAWYQQKPGQAPKLLIYDASKLASGVPSRFSGSGSGTDFTLTISSLQPEDFATYYCQGTYYGSTTISAFGQGTKVVIK    7

Query: Please give the documented EC50 of MAB-16-0464 (antibody, V domains shown, Humanized IgG1-LALA (L234A, L235A in the human IgG1 Fc, EU numbering)) VH: EVQLEESGGGLVQPGGSLRLSCAASGFDFSSNAMSWVRQAPGKGLEWVGTIYAGSNGNTDYASWAKGRFTISKDTSKTTLYLQMNSLRAEDTATYFCARGASYFTLWGQGTLVTVSS VL: DIVMTQSPSSLSASVGDRVTITCQASESVVSNNRLAWYQQKPGQAPKLLIYLASTLPSGVPSRFSGSGSGTDFTLTISSLQPEDFATYYCAGYKSSSTDGTAFGQGTKVVIK
Reply: 8

Data origin, for the record: patent US20240010741A1
